src = patent US8394991B2

Experiment: logP (acidic, pH 2.3)
Details: pH 2.3
Entries annotated with measured logP
A bare number is all that is needed in reply.

- molecule: "Cc1cc(N)c(Cl)cc1Oc1cccc(C(C)C)c1"
  logP: 4.68

Input "CCN(C)C=Nc1cc(C)c(Oc2cccc(C[Si](C)(C)C)c2)cc1C" . Output logP: 2.93

Input "CCN(C)C=Nc1cc(C)c(Oc2cccc(C(C)(C)OC)c2)cc1C" . Output logP: 2.14

Input "CCN(C)C=Nc1cc(C)c(Oc2cccc(CCCO)c2)cc1C" . Output logP: 1.56

Input "Cc1cc(N=CN(C)C(C)C)c(Cl)cc1Oc1cccc(C(C)C)c1" . Output logP: 2.54

Input "CCN(C)C=Nc1cc(C)c(Oc2cccc(C(C)C)c2)cc1Cl" . Output logP: 2.38

Input COC(C)(C)c1cccc(Oc2cc(C)c(/N=C/N3CC(C)OC(C)C3)cc2C)c1 (stereo not drawn) . Output logP: 2.24

Input "CCN(C)C=Nc1cc(C)c(Oc2cccc(CC(C)(C)C)c2)cc1C" . Output logP: 2.74

Input Cc1cc(/N=C/N2CCCCC2C)c(Cl)cc1Oc1cccc(C(C)C)c1 (stereo not drawn) . Output logP: 2.67

Input "Cc1cc(Oc2cccc(CCCO)c2)c(C)cc1N=CN(C)C(C)C" . Output logP: 1.67

Input "CCN(C)C=Nc1cc(C)c(Oc2cccc(C3CC3)c2)cc1C" . Output logP: 2.35

Input "Cc1cc(/N=C/N2CCCCC2)c(Cl)cc1Oc1cccc(C(C)C)c1" . Output logP: 2.62
